- SYSTEM_TESTED: T1, human Klotho β (human, UniProt Q86Z14 1-1044)
- T1 sequence (looked up): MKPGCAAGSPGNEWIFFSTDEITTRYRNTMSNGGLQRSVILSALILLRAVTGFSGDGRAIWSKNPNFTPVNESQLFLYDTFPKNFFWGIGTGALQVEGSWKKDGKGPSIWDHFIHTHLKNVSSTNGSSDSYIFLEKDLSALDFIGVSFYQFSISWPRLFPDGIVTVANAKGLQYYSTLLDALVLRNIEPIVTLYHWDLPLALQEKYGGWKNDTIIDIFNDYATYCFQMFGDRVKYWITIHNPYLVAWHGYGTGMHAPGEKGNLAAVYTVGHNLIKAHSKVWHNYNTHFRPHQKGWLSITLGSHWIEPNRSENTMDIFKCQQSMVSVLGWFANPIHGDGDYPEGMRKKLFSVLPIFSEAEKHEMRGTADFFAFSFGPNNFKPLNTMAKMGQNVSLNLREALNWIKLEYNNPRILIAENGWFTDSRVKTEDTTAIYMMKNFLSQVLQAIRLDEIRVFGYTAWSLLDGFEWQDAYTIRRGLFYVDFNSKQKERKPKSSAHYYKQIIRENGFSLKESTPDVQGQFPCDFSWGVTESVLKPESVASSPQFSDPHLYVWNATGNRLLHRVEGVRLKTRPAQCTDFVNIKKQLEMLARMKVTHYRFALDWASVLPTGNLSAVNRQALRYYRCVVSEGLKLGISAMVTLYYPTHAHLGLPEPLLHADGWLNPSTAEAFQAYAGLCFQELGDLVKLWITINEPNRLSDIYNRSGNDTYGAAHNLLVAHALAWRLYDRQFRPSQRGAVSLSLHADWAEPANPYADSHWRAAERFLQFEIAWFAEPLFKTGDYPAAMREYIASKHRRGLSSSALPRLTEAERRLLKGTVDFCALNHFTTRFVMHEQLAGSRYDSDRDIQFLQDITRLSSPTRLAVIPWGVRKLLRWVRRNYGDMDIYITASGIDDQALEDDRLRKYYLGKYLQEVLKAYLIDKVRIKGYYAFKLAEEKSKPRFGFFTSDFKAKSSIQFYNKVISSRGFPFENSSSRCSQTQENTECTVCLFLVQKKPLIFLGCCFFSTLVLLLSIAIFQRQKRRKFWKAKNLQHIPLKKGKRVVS
- TEST_DESCRIPTION: cell-based or functional assay
MEASURED_QUANTITY: IC-50 of antagonism of FGF21 (pErk1/2, 293 HEK hKLB cells) (nM)

Examples from the recorded data:
INSERT INTO assay_data (binder, value_measured) VALUES
  ('PPDVGSADPLSMVGPSQGRSPSYAS [FGF21 25mer A7]', 359),
  ('PADVGSSDPLSMVGPSQGRSPSYAS [FGF21 25mer A2]', 137),
  ('APDVGSSDPLSMVGPSQGRSPSYAS [FGF21 25mer A1]', 33),
  ('PPDVGSSDPLAMVGPSQGRSPSYAS [FGF21 25mer A11]', 102);

[A] PPDVASSDPLSMVGPSQGRSPSYAS [FGF21 25mer A5]
[B] PPDVGSSDPLSMVGPSQGRSPAYAS [FGF21 25mer A22]
query: Field: lower recorded IC-50 of antagonism of FGF21 (pErk1/2, 293 HEK hKLB cells) (choose A or B ) // return label of chosen record
result: A
(A: 90.1 nM, B: 752 nM)

[P] PPDVGASDPLSMVGPSQGRSPSYAS [FGF21 25mer A6]
[Q] PPDVGSSDPLSMVGPSQARSPSYAS [FGF21 25mer A18]
query: Rank P against Q by their IC-50 of antagonism of FGF21 (pErk1/2, 293 HEK hKLB cells) values and give the higher one. Label of pick, please.
result: P
